The reported measurements were obtained from ChEMBL document CHEMBL4330081.

Exercise: for every item that follows, state its recorded IC50.
# System: MM1.S
# experimental details: Antiproliferative activity against human MM1S cells after 72 hrs by CellTiter Glo luminescent assay
# Format: functional, cell-based
Numbers only, in nM.

# per-item lookup of IC50; items listed below
1. CC(C)(CCl)C(=O)Oc1ccc(Cn2ccnc2)c2cccnc12
2. Cc1ccc2c(Cn3cnc(F)c3)ccc(OC(=O)OC(C)(C)C)c2n1
3. O=[N+]([O-])c1ccc2c(c1)ncn2Cc1ccc(O)c2ncccc12

1. 3600
2. 1100
3. 10900

Go through the items and report each one's IC50.
1. CC(=O)Oc1ccc(Cn2cnc(F)c2)c2cccnc12
2. Oc1ccc(Cn2cncn2)c2cccnc12
3. Oc1ccc(Cn2cnc(F)c2)c2cccnc12

[1100, 4300, 1200]
